Target: T1, biotinylated human B7-H7 protein (Acro Biosystems, B77-H82F5) (human, UniProt Q9UM44 23-344, biotinylated)
T1 construct: Bought soluble protein; also called biotin-B7H7 protein
T1 sequence (looked up): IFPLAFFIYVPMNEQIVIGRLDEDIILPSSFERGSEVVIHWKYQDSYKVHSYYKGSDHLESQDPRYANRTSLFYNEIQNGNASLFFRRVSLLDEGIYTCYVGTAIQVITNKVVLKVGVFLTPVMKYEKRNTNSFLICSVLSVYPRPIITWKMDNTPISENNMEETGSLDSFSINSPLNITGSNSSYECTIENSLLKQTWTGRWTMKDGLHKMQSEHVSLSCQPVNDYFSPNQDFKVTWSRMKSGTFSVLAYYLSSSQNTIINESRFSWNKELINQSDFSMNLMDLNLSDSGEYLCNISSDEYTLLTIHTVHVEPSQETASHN
Experiment: flow cytometry, blocking of biotinylated human B7-H7 binding to CHO-K1/KIR3DL3 cells
assay-metric: IC50 (nM)
Write down the numeric answer in nM and omit the unit.

Record request: IC50 value, item PR003252 (antibody, human IgG1, kappa, V domains shown, Human IgG1; also called 53C12D4) VH: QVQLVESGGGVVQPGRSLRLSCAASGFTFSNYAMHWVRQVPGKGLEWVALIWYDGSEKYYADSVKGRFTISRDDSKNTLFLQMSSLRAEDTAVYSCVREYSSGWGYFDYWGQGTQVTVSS VL: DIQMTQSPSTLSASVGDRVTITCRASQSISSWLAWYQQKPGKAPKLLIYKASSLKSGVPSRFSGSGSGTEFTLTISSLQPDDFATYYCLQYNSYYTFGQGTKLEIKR
7.59
